Tested on: Escherichia coli
Test: Inhibition of Escherichia coli FimH-mediated hemagglutinination of guinea pig red blood cells assessed as drug level required for > 90% inhibition of hemagglutinination
Threshold 4 µM: Activity strictly smaller gives 1, otherwise 0.

Recorded results for 5 molecules are shown here.
COC(=O)c1ccc(O[C@H]2O[C@H](CO)[C@@H](O)[C@H](O)[C@@H]2O)cc1; 0
COC(=O)c1ccc(-c2cccc(O[C@H]3O[C@H](CO)[C@@H](O)[C@H](O)[C@@H]3O)c2)cc1; 0
OCc1cccc(-c2ccc(O[C@H]3O[C@H](CO)[C@@H](O)[C@H](O)[C@@H]3O)cc2)c1; 1
CCCCCCCO[C@H]1O[C@H](CO)[C@@H](O)[C@H](O)[C@@H]1O; 0
CNC(=O)c1cccc(-c2ccc(O[C@H]3O[C@H](CO)[C@@H](O)[C@H](O)[C@@H]3O)cc2)c1; 1

[Q] Hello, I'm reviewing records and need to know if Activity of COC(=O)c1cc2cc(O[C@H]3O[C@H](CO)[C@@H](O)[C@H](O)[C@@H]3O)ccc2s1 is below 4 µM. Could you check?
[A] 1

[Q] Hello, I'm reviewing records and need to know if Activity of OC[C@H]1O[C@H](Oc2ccc(Cl)cc2)[C@@H](O)[C@@H](O)[C@@H]1O is below 4 µM. Could you check?
[A] 0

[Q] Hello, I'm reviewing records and need to know if Activity of CC(=O)Nc1ccc(O[C@H]2O[C@H](CO)[C@@H](O)[C@H](O)[C@@H]2O)cc1 is below 4 µM. Could you check?
[A] 0

[Q] Hello, I'm reviewing records and need to know if Activity of COC(=O)Cc1ccc(O[C@H]2O[C@H](CO)[C@@H](O)[C@H](O)[C@@H]2O)cc1 is below 4 µM. Could you check?
[A] 0

[Q] Hello, I'm reviewing records and need to know if Activity of COC(=O)c1cccc(O[C@H]2O[C@H](CO)[C@@H](O)[C@H](O)[C@@H]2O)c1 is below 4 µM. Could you check?
[A] 0

---

Property: pEC50; scope: individual molecules
Assay: Displacement of 5(6)-FAM-mannoside from Escherichia coli FimH by fluorescence polarization assay
Conceptually, pEC50 converts a concentration in mol/L into minus its log10.

Consider the worked cases shown below.
CNC(=O)c1cccc(-c2ccc(O[C@H]3O[C@H](CO)[C@@H](O)[C@H](O)[C@@H]3O)cc2)c1; 7.12
O=C(O)c1cccc(-c2ccc(O[C@H]3O[C@H](CO)[C@@H](O)[C@H](O)[C@@H]3O)cc2)c1; 7.00
CNC(=O)c1cc(C(=O)NC)cc(-c2ccc(O[C@H]3O[C@H](CO)[C@@H](O)[C@H](O)[C@@H]3O)cc2)c1; 7.06
COC(=O)c1cccc(O[C@H]2O[C@H](CO)[C@@H](O)[C@H](O)[C@@H]2O)c1; 7.08
COC(=O)c1cccc(-c2ccc(O[C@H]3O[C@H](CO)[C@@H](O)[C@H](O)[C@@H]3O)cc2)c1; 7.28

// field: pEC50; key: NC(=O)c1cccc(-c2ccc(O[C@H]3O[C@H](CO)[C@@H](O)[C@H](O)[C@@H]3O)cc2)c1 ; value = 7.11

// field: pEC50; key: OC[C@H]1O[C@H](OCc2ccccc2)[C@@H](O)[C@@H](O)[C@@H]1O ; value = 6.73

// field: pEC50; key: CS(=O)(=O)Nc1cccc(-c2ccc(O[C@H]3O[C@H](CO)[C@@H](O)[C@H](O)[C@@H]3O)cc2)c1 ; value = 7.01

// field: pEC50; key: N#Cc1cccc(O[C@H]2O[C@H](CO)[C@@H](O)[C@H](O)[C@@H]2O)c1 ; value = 6.79

// field: pEC50; key: COC(=O)c1cc(C(=O)OC)cc(-c2ccc(O[C@H]3O[C@H](CO)[C@@H](O)[C@H](O)[C@@H]3O)cc2)c1 ; value = 7.11

// field: pEC50; key: COC(=O)c1cc(O[C@H]2O[C@H](CO)[C@@H](O)[C@H](O)[C@@H]2O)cc(C(=O)OC)c1 ; value = 7.04
